System: Escherichia coli TOP10
RUN DESCRIPTION: shrunken log2 fold change of peptide-encoding DNA abundance (4.5 h post-induction vs induction); higher = less antimicrobial activity (less host growth inhibition)
PARTICULARS: time post-induction: 4.5 h; library: site-saturation at positions 5, 18, 19, 20

>  <QUERY SEQUENCE>
RRIRDRPPRLPRPRPRPSCSPRP

>  <shrunken log2 fold change>
-0.253

$$$$
>  <QUERY SEQUENCE>
RRIRCRPPRLPRPRPRPIYCPRP

>  <shrunken log2 fold change>
-0.14

$$$$
>  <QUERY SEQUENCE>
RRIRDRPPRLPRPRPRPGWSPRP

>  <shrunken log2 fold change>
0.104

$$$$
>  <QUERY SEQUENCE>
RRIRFRPPRLPRPRPRPSIVPRP

>  <shrunken log2 fold change>
-0.663

$$$$
>  <QUERY SEQUENCE>
RRIRVRPPRLPRPRPRPTADPRP

>  <shrunken log2 fold change>
0.27

$$$$
>  <QUERY SEQUENCE>
RRIRSRPPRLPRPRPRPTHPPRP

>  <shrunken log2 fold change>
0.298

$$$$
>  <QUERY SEQUENCE>
RRIRARPPRLPRPRPRPMDSPRP

>  <shrunken log2 fold change>
-0.104

$$$$
>  <QUERY SEQUENCE>
RRIRARPPRLPRPRPRPWHIPRP

>  <shrunken log2 fold change>
0.0256

$$$$

###

System: Escherichia coli TOP10;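 note: peptides expressed intracellularly from a pBAD plasmid library in pooled LB shake-flask culture, induced with 0.3% L-arabinose, DNA abundance read by NGS, three biological replicates, DESeq2 with apeglm shrinkage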
RUN DESCRIPTION: shrunken log2 fold change of peptide-encoding DNA abundance (4.5 h post-induction vs induction); higher = less antimicrobial activity (less host growth inhibition)
PARTICULARS: time post-induction: 4.5 h; library: site-saturation at positions 5, 18, 19, 20

>  <QUERY SEQUENCE>
RRIRARPPRLPRPRPRPLIWPRP

>  <shrunken log2 fold change>
0.359

$$$$
>  <QUERY SEQUENCE>
RRIRVRPPRLPRPRPRPYMIPRP

>  <shrunken log2 fold change>
-0.904

$$$$
>  <QUERY SEQUENCE>
RRIRQRPPRLPRPRPRPLSHPRP

>  <shrunken log2 fold change>
-0.168

$$$$
>  <QUERY SEQUENCE>
RRIRARPPRLPRPRPRPLYQPRP

>  <shrunken log2 fold change>
0.141

$$$$
>  <QUERY SEQUENCE>
RRIRERPPRLPRPRPRPKMIPRP

>  <shrunken log2 fold change>
-0.399

$$$$
>  <QUERY SEQUENCE>
RRIRNRPPRLPRPRPRPNWQPRP

>  <shrunken log2 fold change>
-0.123

$$$$
>  <QUERY SEQUENCE>
RRIRDRPPRLPRPRPRPNWRPRP

>  <shrunken log2 fold change>
0.46

$$$$
>  <QUERY SEQUENCE>
RRIRFRPPRLPRPRPRPHVPPRP

>  <shrunken log2 fold change>
-0.315

$$$$
>  <QUERY SEQUENCE>
RRIRFRPPRLPRPRPRPRQRPRP

>  <shrunken log2 fold change>
0.346

$$$$
>  <QUERY SEQUENCE>
RRIRGRPPRLPRPRPRPYGLPRP

>  <shrunken log2 fold change>
0.0992

$$$$
>  <QUERY SEQUENCE>
RRIRTRPPRLPRPRPRPCVDPRP

>  <shrunken log2 fold change>
0.0267

$$$$
>  <QUERY SEQUENCE>
RRIRVRPPRLPRPRPRPAKFPRP

>  <shrunken log2 fold change>
0.42

$$$$
>  <QUERY SEQUENCE>
RRIRHRPPRLPRPRPRPCRYPRP

>  <shrunken log2 fold change>
-0.0657

$$$$
>  <QUERY SEQUENCE>
RRIRRRPPRLPRPRPRPVAPPRP

>  <shrunken log2 fold change>
0.436

$$$$
>  <QUERY SEQUENCE>
RRIRERPPRLPRPRPRPVARPRP

>  <shrunken log2 fold change>
-0.168

$$$$
>  <QUERY SEQUENCE>
RRIRCRPPRLPRPRPRPWRSPRP

>  <shrunken log2 fold change>
-0.0803

$$$$
>  <QUERY SEQUENCE>
RRIRWRPPRLPRPRPRPYLHPRP

>  <shrunken log2 fold change>
-0.639

$$$$
>  <QUERY SEQUENCE>
RRIRARPPRLPRPRPRPHGSPRP

>  <shrunken log2 fold change>
-0.071

$$$$
>  <QUERY SEQUENCE>
RRIRVRPPRLPRPRPRPAWIPRP

>  <shrunken log2 fold change>
0.0483

$$$$
>  <QUERY SEQUENCE>
RRIRQRPPRLPRPRPRPRDYPRP

>  <shrunken log2 fold change>
0.0272

$$$$
>  <QUERY SEQUENCE>
RRIRMRPPRLPRPRPRPVGEPRP

>  <shrunken log2 fold change>
0.141

$$$$
>  <QUERY SEQUENCE>
RRIRGRPPRLPRPRPRPEYKPRP

>  <shrunken log2 fold change>
0.375

$$$$
>  <QUERY SEQUENCE>
RRIRRRPPRLPRPRPRPHFYPRP

>  <shrunken log2 fold change>
0.0714

$$$$
>  <QUERY SEQUENCE>
RRIRDRPPRLPRPRPRPPYAPRP

>  <shrunken log2 fold change>
0.0432

$$$$
>  <QUERY SEQUENCE>
RRIRKRPPRLPRPRPRPLAYPRP

>  <shrunken log2 fold change>
0.259

$$$$
>  <QUERY SEQUENCE>
RRIRMRPPRLPRPRPRPDGTPRP

>  <shrunken log2 fold change>
2.88

$$$$
>  <QUERY SEQUENCE>
RRIRSRPPRLPRPRPRPEERPRP

>  <shrunken log2 fold change>
0.826

$$$$
>  <QUERY SEQUENCE>
RRIRDRPPRLPRPRPRPCCMPRP

>  <shrunken log2 fold change>
0.125

$$$$
>  <QUERY SEQUENCE>
RRIRVRPPRLPRPRPRPQRIPRP

>  <shrunken log2 fold change>
-0.544

$$$$
>  <QUERY SEQUENCE>
RRIRARPPRLPRPRPRPIYQPRP

>  <shrunken log2 fold change>
0.0519

$$$$
>  <QUERY SEQUENCE>
RRIRKRPPRLPRPRPRPNFCPRP

>  <shrunken log2 fold change>
-0.0549

$$$$
>  <QUERY SEQUENCE>
RRIRLRPPRLPRPRPRPMCMPRP

>  <shrunken log2 fold change>
-0.451

$$$$
